Test: Cmax in Sprague-Dawley rat at 0.3 mg/kg administered as multiple dose after 8 days
Format: ADME, organism-based
Parameters: dose 0.3 mg/kg
Conditions: in vivo
PARAMETER: Cmax

// lookup Cmax for Cc1cc(SCc2nc(-c3ccc(Cl)c(Cl)c3)ns2)ccc1OC(C)(C)C(=O)O 0.231 µg/mL

====

Test: AUC in Beagle dog at 10 mg/kg administered as multiple dose after 7 days
Type: ADME, organism-based, Canis lupus familiaris
Parameters: dose 10 mg/kg
Conditions: plasma
PARAMETER: AUC at 168 h (ng·h/mL)
Only the number, expressed in ng·h/mL, is required.

// lookup AUC at 168 h for Cc1cc(SCc2nc(-c3ccc(Cl)c(Cl)c3)ns2)ccc1OC(C)(C)C(=O)O 61600

====

Experiment: Half life in Sprague-Dawley rat at 0.3 mg/kg administered as multiple dose after 8 days
Type: ADME, organism-based
Design: dose 0.3 mg/kg
Settings: in vivo
PARAMETER: half-life (h)
Only the number, expressed in h, is required.

// lookup half-life for Cc1cc(SCc2nc(-c3ccc(Cl)c(Cl)c3)ns2)ccc1OC(C)(C)C(=O)O 5.1

====

Test: AUC in Beagle dog at 1 mg/kg administered as multiple dose after 7 days
Type: ADME, organism-based, Canis lupus familiaris
Parameters: dose 1 mg/kg
Settings: plasma
PARAMETER: AUC at 168 h

// lookup AUC at 168 h for Cc1cc(SCc2nc(-c3ccc(Cl)c(Cl)c3)ns2)ccc1OC(C)(C)C(=O)O 6500 ng·h/mL

====

Experiment: Half life in Sprague-Dawley rat at 3 mg/kg administered as single dose on day 8
Type: ADME, organism-based
Design: dose 3 mg/kg
Settings: in vivo
PARAMETER: half-life (h)
Only the number, expressed in h, is required.

// lookup half-life for Cc1cc(SCc2nc(-c3ccc(Cl)c(Cl)c3)ns2)ccc1OC(C)(C)C(=O)O 7.2

====

Assay: Half life in Sprague-Dawley rat at 1 mg/kg administered as multiple dose after 8 days
Format: ADME, organism-based
Set-up: dose 1 mg/kg
Conditions: in vivo
PARAMETER: half-life (h)
Only the number, expressed in h, is required.

// lookup half-life for Cc1cc(SCc2nc(-c3ccc(Cl)c(Cl)c3)ns2)ccc1OC(C)(C)C(=O)O 5.7

====

Experiment: Half life in Beagle dog at 3 mg/kg administered as multiple dose after 7 days
Format: ADME, organism-based, Canis lupus familiaris
Parameters: dose 3 mg/kg
Conditions: in vivo
PARAMETER: half-life (h)
Only the number, expressed in h, is required.

// lookup half-life for Cc1cc(SCc2nc(-c3ccc(Cl)c(Cl)c3)ns2)ccc1OC(C)(C)C(=O)O 6

====

Assay: Half life in Beagle dog at 1 mg/kg administered as multiple dose after 7 days
Assay type: ADME, organism-based, Canis lupus familiaris
Set-up: dose 1 mg/kg
Conditions: in vivo
PARAMETER: half-life (h)
Only the number, expressed in h, is required.

// lookup half-life for Cc1cc(SCc2nc(-c3ccc(Cl)c(Cl)c3)ns2)ccc1OC(C)(C)C(=O)O 4.7

====

Assay: Cmax in ob/ob C57BL/6J-leptin deficient obese mouse at 1 mg/kg administered as multiple dose after 11 days
Type: ADME, organism-based
Set-up: dose 1 mg/kg
Conditions: in vivo
PARAMETER: Cmax (ng/mL)
Only the number, expressed in ng/mL, is required.

// lookup Cmax for Cc1cc(SCc2nc(-c3ccc(Cl)c(Cl)c3)ns2)ccc1OC(C)(C)C(=O)O 6830
